tested on: Malme-3M; test: NCI tumour cell line growth inhibition, 48 h
Active and inactive are the calls of the source. No stated cut-off is given here; in the data, active = GI50 up to about 1.1 µM and inactive = higher.
Respond using exactly one of the listed classes: Y = active, N = inactive

In [3]: df
Out[3]:
                                   compound  assigned_label
0  COc1ccc(C2C(C(=O)O)=C(CO)Oc3cc4c(cc32)OCO4)c(OC)c1 (stereo unspecified)               N
1  COc1ccc(C(=O)/C=C2\Nc3cccnc3N\C2=C/C(=O)c2ccc(OC)cc2)cc1               N
2      NS(=O)(=O)c1ccc(NC2(C(=O)O)CCCC2)cc1               N
3        COc1ccc(CCCNC(=O)Cc2ccccc2CO)cc1OC               N
4              Oc1ccc(CNCc2ccccc2)c2cccnc12               Y

Consider the additional compound presented here.
// outcome(item) with item = COc1c(Cl)nc2ccccc2c1N=[N+]=[N-] N

----------
Record form. Attribute: GI50. Fill in for each entry.
system: SR; experiment: NCI tumour cell line growth inhibition, 48 h
Active and inactive are the calls of the source. No stated cut-off is given here; in the data, active = GI50 up to about 1.1 µM and inactive = higher.

Take a look at these entries with their results.
>>> print(df.to_string())
                                   compound  quantity_measured             measured
0            CCCCSCc1nc2nc(Cl)c(Cl)nc2[nH]1               GI50     22 µM (inactive)
1  COC(=O)CC(C(C(=O)OCc1ccccc1)C(C)O)N1C(=O)OCC1c1ccccc1 (stereo unspecified)               GI50   38.1 µM (inactive)
2  O=C1OC(=O)C2C3C=CC(C12)C1C2C=CC2C31 (stereo unspecified)               GI50  > 100 µM (inactive)
3  CN(C)CCCN1c2ccccc2CCc2ccc([N+](=O)[O-])cc21               GI50   25.9 µM (inactive)
4  CC1(C)C2CCC(N)(C2)C1N (stereo unspecified)               GI50  > 100 µM (inactive)

I'd like to know its GI50. The compound in question is O=[N+]([O-])c1ccc(C2=Nn3cnnc3SC2)o1 16.7 µM (inactive)

----------
system: CAKI-1; assay: NCI tumour cell line growth inhibition, 48 h
Activity calls are given as the source filed them. No stated cut-off is given here; in the data, active = GI50 up to about 1.1 µM and inactive = higher.
Record form. Attribute: GI50. Fill in for each entry.

>>> print(df.to_string())
                                   molecule             measured
0  COc1ccc(C(=O)N2CCc3c([nH]c4ccccc34)C2C(=O)O)o1 (stereo unspecified)   > 10 µM (inactive)
1    Cc1nc2c(o1)C(=O)c1ccccc1/C2=N\c1ccccc1   17.9 µM (inactive)
2  CN(C)CC1(C)CC/C(=C\c2ccc(Cl)cc2)C1=O (stereo unspecified)   22.7 µM (inactive)
3  O=c1c(Cc2ccccc2)c(-c2ccccc2)[nH]n1C1=NCCN1   72.1 µM (inactive)
4  CCCN(CCCCC(NC(C)=O)C(=O)NCc1ccccc1)C(=O)NC (stereo unspecified)  > 100 µM (inactive)

With those in mind, consider the next molecule.
Please state recorded GI50 (tested on CAKI-1) of COc1cc(C=O)ccc1Oc1nnnn1-c1ccccc1 31.3 µM (inactive)

----------
system: CAKI-1; test: NCI tumour cell line growth inhibition, 48 h
Activity calls are given as the source filed them. No stated cut-off is given here; in the data, active = GI50 up to about 1.1 µM and inactive = higher.
quantity_measured: GI50

Take a look at these entries with their results.
                                   compound             measured
0   O=C(CN1CCCCC1)Nc1ccc2sc3ccccc3c(=O)c2n1   13.6 µM (inactive)
1  Cc1cc(=O)oc2c(CNC(C)C(=O)O)c(O)ccc12 (stereo not given)  > 100 µM (inactive)
2      CC(=O)N(C(C)=O)c1cc2c3c(c1)CCCN3CCC2   > 10 µM (inactive)
3     O=[N+]([O-])/C=C/COCc1cc2c(cc1Br)OCO2   20.6 µM (inactive)

Each of the following entries comes with a recorded value; kindly state GI50 for each.
1. COc1cc2ccc1-c1cc(ccc1O)CC1c3cc4c(cc3CCN1C)Oc1c(OC)cc3c(c1O4)C(C2)N(C)CC3 (stereo not given)
2. CCOC(=O)C1=C(C)C(C(=O)OC)/C(=C/c2cccc3cccnc23)C1=O (stereo not given)
3. CCCCCCCCCC(=O)OCC1(CO)C/C(=C/CC(C(C)C)C(C)C)C(=O)O1 (stereo not given)
4. Cc1cc(N(CCC#N)CCC#N)ccc1/C(Sc1ccccc1)=C(\NC(=O)/C=C/c1ccccc1)C(=O)Sc1ccccc1

1. 2.52 µM (inactive)
2. > 10 µM (inactive)
3. 16 µM (inactive)
4. 2.05 µM (inactive)

Each of the following entries comes with a recorded value; kindly state GI50 for each.
1. S=P(C1CCCCC1)(C1CCCCC1)C(c1cccnc1)N1CCCC1 (stereo not given)
2. CN(CCN(C)Cc1ccc(Cl)c(Cl)c1)CCN1CCCC1

1. 17.4 µM (inactive)
2. 36 µM (inactive)

----------
Record form. Attribute: GI50. Fill in for each entry.
system: CAKI-1; experiment: NCI tumour cell line growth inhibition, 48 h
Calls of active or inactive are those of the source. Rule as the data show it: active = GI50 up to about 1.1 µM and inactive = higher.

Each of the following entries comes with a recorded value; kindly state GI50 for each.
1. N/C(=N\N=C\c1cc2ccccc2s1)c1cnccn1
2. Brc1ccc(/N=N/c2ccc3ccccc3n2)cc1

1. > 100 µM (inactive)
2. 14.1 µM (inactive)

----------
tested on: IGROV-1; assay: NCI tumour cell line growth inhibition, 48 h
Activity calls are given as the source filed them. No stated cut-off is given here; in the data, active = GI50 up to about 1.1 µM and inactive = higher.
Record form. Attribute: GI50. Fill in for each entry.

Take a look at these entries with their results.
>>> df
                                   compound             measured
0  Cn1c(=O)c2[nH]c(-n3nc(-c4ccccc4)cc3N)nc2n(C)c1=O   1.34 µM (inactive)
1            Cn1nc2ccc3nccc(NCCNCCCl)c3c2n1  > 100 µM (inactive)

Each of the following entries comes with a recorded value; kindly state GI50 for each.
1. O=S1(=O)c2ccccc2N2C(c3ccccc3)=NOC2(c2ccccc2)CC1c1ccc(Br)cc1 (stereo unspecified)
2. COC(=O)C1C(C(=O)OC)C2C(=O)C3C(C(=O)OC)C(C(=O)OC)C3C(=O)C12 (stereo unspecified)
3. COc1cc(OC)nc(-n2c(N)c(C#N)c3ccc([N+](=O)[O-])cc3c2=O)n1
4. C=C(C)CCC1CC=[N+]([O-])OC1C(C)(C)C (stereo unspecified)

> 100 µM (inactive)
> 100 µM (inactive)
79.3 µM (inactive)
34.6 µM (inactive)

Each of the following entries comes with a recorded value; kindly state GI50 for each.
1. O=C(Nc1c(Cl)cccc1Cl)c1c(Cl)c(Cl)c(Cl)c(Cl)c1-c1nc2ccccc2[nH]1
2. COc1ccc(Cc2ccc3nc(O)cc(C)c3c2)cc1S(=O)(=O)O
3. CC(NC1=CC(=O)c2cccnc2C1=O)C(O)c1ccccc1 (stereo unspecified)
4. C[N+]1=c2c3cccc4cccc(c(=O)n2CCC1)c43
5. O=C(CCC1OCCO1)Nc1cc(NCc2ccccc2)ccc1OCc1ccccc1
6. O=C1C2=C(N[C@@H](c3ccccc3)[C@H](c3ccccc3)N2)C(=O)c2ccccc21

["14.2 µM (inactive)", "> 100 µM (inactive)", "1.28 µM (inactive)", "36 µM (inactive)", "41.6 µM (inactive)", "> 100 µM (inactive)"]

----------
tested on: 786-0; assay: NCI tumour cell line growth inhibition, 48 h
Active and inactive are the calls of the source. No stated cut-off is given here; in the data, active = GI50 up to about 1.1 µM and inactive = higher.
quantity_measured: GI50

Take a look at these entries with their results.
>>> print(df.to_string())
                                   molecule  system_under_test  quantity_measured             measured
0                 C/C=N\N1C(=O)c2ccccc2C1=O              786-0               GI50  > 100 µM (inactive)
1    Cc1nc2c(o1)C(=O)c1ccccc1/C2=N\c1ccccc1              786-0               GI50   8.38 µM (inactive)
2  NC1N=C(c2ccc(Cl)cc2)C2=C(N1)c1ccccc1CC2 (stereo not drawn)              786-0               GI50   13.2 µM (inactive)
3  C=CCC(C)C12CCNC(Cc3ccc(O)cc31)C2C (stereo not drawn)              786-0               GI50  > 100 µM (inactive)
4     Cc1noc(/N=C2\C=C(O)C(=O)c3ccccc32)c1C              786-0               GI50   21.2 µM (inactive)
5             COC(=O)Nc1nc(=O)c2ccccc2[nH]1              786-0               GI50  > 100 µM (inactive)

Each of the following entries comes with a recorded value; kindly state GI50 for each.
1. CN(C)Cc1cc(/C(=C(\C#N)c2ccccc2)c2ccc(O)cc2)ccc1O
2. CN(C)CCCN1c2ccccc2CCc2ccc([N+](=O)[O-])cc21
3. N#CC1=C(N)OC(c2cccc([N+](=O)[O-])c2)C1(C#N)C#N (stereo not drawn)
4. COc1ccc(Cc2ccc3nc(O)cc(C)c3c2)cc1S(=O)(=O)O
5. c1ccc(C/C(=N\Nc2nc3ccccc3o2)c2ccccn2)cc1
6. COc1ccc(/C=N/NC(=O)c2ccccc2Nc2ccccc2C(=O)N/N=C/c2ccc(OC)cc2)cc1

["15 µM (inactive)", "33 µM (inactive)", "14.9 µM (inactive)", "> 100 µM (inactive)", "< 0.0193 µM (active)", "> 100 µM (inactive)"]

Each of the following entries comes with a recorded value; kindly state GI50 for each.
1. O=C(CN1C(=O)c2ccccc2C1=O)OCC1CCCN2CCCCC12 (stereo not drawn)
2. O=C(Nc1c(Cl)cccc1Cl)c1c(Cl)c(Cl)c(Cl)c(Cl)c1-c1nc2ccccc2[nH]1
3. COc1cc2cccc(/N=C\c3cccc(OC)c3OC(C)C)c2cc1OC
4. O=C(Nc1ccc(Cl)cc1)c1cc2c(cc1Cl)SC(NNCCO)=NS2(=O)=O
5. CCN(CC)C(=O)Cn1c2ccccc2[n+]2cc(N)ccc12
6. CC1(C)N=c2c(ncn2Cc2ccccc2)=C(C(N)=O)N1
7. NC(=O)c1c[se]c(C2OC(CO)C(O)C2O)n1 (stereo not drawn)
8. O=[N+]([O-])/C=C/COCc1cc2c(cc1Br)OCO2

> 100 µM (inactive)
36.4 µM (inactive)
18.5 µM (inactive)
> 100 µM (inactive)
> 100 µM (inactive)
> 100 µM (inactive)
2.44 µM (inactive)
13.8 µM (inactive)
